Each entry below carries its reported pIC50.
- tested target: Prostaglandin D2 receptor 2 (Homo sapiens)
- experiment: Antagonist activity at human CRTH2 transfected in human KB8 cells assessed as inhibition of PGD2-induced increase in intracellular Ca2+ by fluo-4AM dye-based assay
- Assay type: functional, cell-based
pIC50: −log10 of the molar value.
value kind: pIC50

smiles representation	value kind	relation operator	measured number
O=C(O)Cc1cnc(C(=O)c2ccc(C(=O)Nc3ccc(Cl)cc3)cc2)c2ccccc12	pIC50	=	7.42
O=C(O)Cc1cnc(C(=O)c2ccc(NC(=O)c3ccc(Cl)cc3)cc2)c2ccccc12	pIC50	=	8.04
O=C(O)Cc1cnc(C(=O)c2ccc(NC(=O)c3ccccc3Cl)cc2)c2ccccc12	pIC50	<	6.00
N#Cc1ccc(C(=O)Nc2ccc(C(=O)c3ncc(CC(=O)O)c4ccccc34)cc2)cc1	pIC50	<	6.00
O=C(O)Cc1cnc(C(=O)c2ccc(NC(=O)Nc3ccc(Cl)c(Cl)c3)cc2)c2ccccc12	pIC50	=	7.44
O=C(O)Cc1cnc(C(=O)c2ccc(NC(=O)c3cccnn3)cc2)c2ccccc12	pIC50	<	6.00
COc1ccc(C(=O)Nc2ccc(C(=O)c3ncc(CC(=O)O)c4ccccc34)cc2)cc1	pIC50	=	7.77
O=C(O)Cc1cnc(C(=O)c2ccc(NC(=O)CC3CCCCC3)cc2)c2ccccc12	pIC50	=	6.66
O=C(O)Cc1cnc(C(=O)c2ccc(NC(=O)c3ccncc3)cc2)c2ccccc12	pIC50	<	6.00

---

Each entry below carries its reported IC50.
- tested target: Prostaglandin D2 receptor 2 (Homo sapiens)
- experiment: Displacement of [3H]PGD2 from human CRTH2 transfected in CHO cells by liquid scintillation counting analysis
- Format: cell-based

smiles representation	IC50, nM
Cc1ccc(C(=O)Nc2ccc(C(=O)c3ncc(CC(=O)O)c4ccccc34)cc2)cc1	5.2
O=C(O)Cc1cnc(C(=O)c2ccc(NC(=O)OCc3ccc(Cl)c(Cl)c3)cc2)c2ccccc12	6.7
CN(C)c1ccc(C(=O)Nc2ccc(C(=O)c3ncc(CC(=O)O)c4ccccc34)cc2)cc1	6.2
O=C(O)Cc1cnc(C(=O)c2ccc(NC(=O)c3cccnn3)cc2)c2ccccc12	322
O=C(O)Cc1cnc(C(=O)c2ccc(C(=O)NCCc3ccc(Cl)c(Cl)c3)cc2)c2ccccc12	3.7
O=C(O)Cc1cnc(C(=O)c2ccc(NC(=O)c3ccc([N+](=O)[O-])cc3)cc2)c2ccccc12	9.9
O=C(O)Cc1cnc(C(=O)c2ccc(NC(=O)Nc3ccc(Cl)c(Cl)c3)cc2)c2ccccc12	13
O=C(O)Cc1cnc(C(=O)c2ccc(NC(=O)CC34CC5CC(CC(C5)C3)C4)cc2)c2ccccc12	21
O=C(O)Cc1cnc(C(=O)c2ccc(NC(=O)C3CC3)cc2)c2ccccc12	50

---

- tested target: Prostaglandin D2 receptor 2 (Homo sapiens, UniProt Q9Y5Y4)
- Sequence (Q9Y5Y4 whole entry): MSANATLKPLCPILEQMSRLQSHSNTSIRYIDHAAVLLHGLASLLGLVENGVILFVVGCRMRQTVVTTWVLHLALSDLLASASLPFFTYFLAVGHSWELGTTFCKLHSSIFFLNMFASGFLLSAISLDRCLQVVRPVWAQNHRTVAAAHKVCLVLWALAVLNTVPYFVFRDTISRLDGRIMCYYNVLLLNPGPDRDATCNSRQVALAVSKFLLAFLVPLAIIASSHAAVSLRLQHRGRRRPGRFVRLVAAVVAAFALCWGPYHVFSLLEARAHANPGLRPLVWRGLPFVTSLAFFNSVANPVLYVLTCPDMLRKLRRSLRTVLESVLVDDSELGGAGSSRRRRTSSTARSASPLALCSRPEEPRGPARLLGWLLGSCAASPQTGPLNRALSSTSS
- experiment: Antagonist activity at human CRTH2 transfected in human KB8 cells assessed as inhibition of PGD2-induced increase in intracellular Ca2+ by fluo-4AM dye-based assay
- Type: functional, cell-based
pIC50: −log10 of the molar value.
value kind: pIC50

smiles representation	value kind	relation operator	measured number
O=C(O)Cc1cnc(C(=O)c2ccc(OCCc3ccc(Cl)cc3)cc2)c2ccccc12	pIC50	=	6.89
O=C(O)Cc1cnc(C(=O)c2ccc(NC(=O)c3cccc(Cl)c3)cc2)c2ccccc12	pIC50	=	8.01
O=C(O)Cc1cnc(C(=O)c2ccc(NCc3ccc(Cl)c(Cl)c3)cc2)c2ccccc12	pIC50	=	7.37
O=C(O)Cc1cnc(C(=O)c2ccc(NC(=O)c3ccc(OC(F)(F)F)cc3)cc2)c2ccccc12	pIC50	=	8.06
O=C(O)Cc1cnc(C(=O)c2ccc(NC(=O)c3cc4ccccc4[nH]3)cc2)c2ccccc12	pIC50	=	8.38
O=C(O)Cc1cnc(C(=O)c2ccc(NC(=O)CCc3ccc(Cl)c(Cl)c3)cc2)c2ccccc12	pIC50	=	7.74
CC(C)(C(=O)O)c1cnc(C(=O)c2ccc(C(=O)NCCc3ccc(Cl)cc3)cc2)c2ccccc12	pIC50	<	6.00
O=C(O)Cc1cnc(C(=O)c2ccc(C(=O)Nc3ccc(Cl)c(Cl)c3)cc2)c2ccccc12	pIC50	=	7.89
O=C(O)Cc1cnc(C(=O)c2ccc(NC(=O)CC34CC5CC(CC(C5)C3)C4)cc2)c2ccccc12	pIC50	=	7.01

---

- tested target: Prostaglandin D2 receptor 2 (Homo sapiens, UniProt Q9Y5Y4)
- experiment: Antagonist activity at human CRTH2 transfected in human KB8 cells assessed as inhibition of PGD2-induced increase in intracellular Ca2+ by fluo-4AM dye-based assay
- Assay type: functional, cell-based
Each entry below carries its reported log10(IC50).
value kind: log10(IC50) (log10 of the value in nM)

smiles representation	measured number
O=C(O)Cc1cnc(C(=O)c2ccc(C(=O)NCCc3ccc(Cl)c(Cl)c3)cc2)c2ccccc12	1.26
O=C(O)Cc1cnc(C(=O)c2ccc(NC(=O)c3ccc(-c4ccccc4)cc3)cc2)c2ccccc12	1.15
O=C(O)Cc1cnc(C(=O)c2ccc(NC(=O)c3ccc4ccccc4c3)cc2)c2ccccc12	1.00
O=C(O)Cc1cnc(C(=O)c2ccc(NC(=O)c3ccc([N+](=O)[O-])cc3)cc2)c2ccccc12	1.45
CN(C)c1ccc(C(=O)Nc2ccc(C(=O)c3ncc(CC(=O)O)c4ccccc34)cc2)cc1	1.11
O=C(O)Cc1cnc(C(=O)c2ccc(NC(=O)c3cccc4ccccc34)cc2)c2ccccc12	2.54
O=C(O)Cc1cnc(C(=O)c2ccc(NC(=O)c3ccc(Oc4ccccc4)cc3)cc2)c2ccccc12	2.08
O=C(O)Cc1cnc(C(=O)c2ccc(NC(=O)OCc3ccc(Cl)c(Cl)c3)cc2)c2ccccc12	0.72
O=C(O)Cc1cnc(C(=O)c2ccc(NC(=O)Cc3ccc(Cl)c(Cl)c3)cc2)c2ccccc12	1.48

---

- experiment: Antagonist activity at CRTH2 in human TH2 cells assessed as inhibition of PGD2-induced chemotaxis after 1 hr by hemocytometry
pIC50: −log10 of the molar value.
value kind: pIC50

smiles representation	measured number
O=C(O)Cc1cnc(C(=O)c2ccc(NC(=O)c3ccc(Cl)c(Cl)c3)cc2)c2ccccc12	7.64

---

- tested target: Prostaglandin D2 receptor 2 (Homo sapiens)
- experiment: Displacement of [3H]PGD2 from human CRTH2 transfected in CHO cells by liquid scintillation counting analysis
- Type: cell-based
Please use Satisfied for IC50 under 20 nM and Not satisfied for everything else, ties included.

smiles representation	tested target	group
O=C(O)Cc1cnc(C(=O)c2ccc(NC(=O)c3ccc(Oc4ccccc4)cc3)cc2)c2ccccc12	Prostaglandin D2 receptor 2 (Homo sapiens)	Satisfied
O=C(O)Cc1cnc(C(=O)c2ccc(NC(=O)c3cccc4ccccc34)cc2)c2ccccc12	Prostaglandin D2 receptor 2 (Homo sapiens)	Not satisfied
O=C(O)Cc1cnc(C(=O)c2ccc(NC(=O)c3cscn3)cc2)c2ccccc12	Prostaglandin D2 receptor 2 (Homo sapiens)	Not satisfied
O=C(O)Cc1cnc(C(=O)c2ccc(NC(=O)c3ccccn3)cc2)c2ccccc12	Prostaglandin D2 receptor 2 (Homo sapiens)	Not satisfied
O=C(O)Cc1cnc(C(=O)c2ccc(NC(=O)c3cc4ccccc4o3)cc2)c2ccccc12	Prostaglandin D2 receptor 2 (Homo sapiens)	Satisfied
O=C(O)Cc1cnc(C(=O)c2ccc(NC(=O)Cc3ccc(Cl)c(Cl)c3)cc2)c2ccccc12	Prostaglandin D2 receptor 2 (Homo sapiens)	Satisfied
O=C(O)Cc1cnc(C(=O)c2ccc(NC(=O)c3ccc(OC(F)(F)F)cc3)cc2)c2ccccc12	Prostaglandin D2 receptor 2 (Homo sapiens)	Satisfied
O=C(O)Cc1cnc(C(=O)c2ccc(C(=O)Nc3ccc(Cl)cc3)cc2)c2ccccc12	Prostaglandin D2 receptor 2 (Homo sapiens)	Satisfied
O=C(O)Cc1cnc(C(=O)c2ccc(NC(=O)C3CCOCC3)cc2)c2ccccc12	Prostaglandin D2 receptor 2 (Homo sapiens)	Not satisfied
O=C(O)Cc1cnc(C(=O)c2ccc(OCCc3ccc(Cl)cc3)cc2)c2ccccc12	Prostaglandin D2 receptor 2 (Homo sapiens)	Satisfied
O=C(O)Cc1cnc(C(=O)c2ccc(OCCCc3ccc(Cl)cc3)cc2)c2ccccc12	Prostaglandin D2 receptor 2 (Homo sapiens)	Satisfied
O=C(O)Cc1cnc(C(=O)c2ccc(NC(=O)c3ccc(-c4ccccc4)cc3)cc2)c2ccccc12	Prostaglandin D2 receptor 2 (Homo sapiens)	Satisfied
N#Cc1ccc(C(=O)Nc2ccc(C(=O)c3ncc(CC(=O)O)c4ccccc34)cc2)cc1	Prostaglandin D2 receptor 2 (Homo sapiens)	Satisfied

Values compiled from ChEMBL document CHEMBL3091404.
